Values from ChEMBL document CHEMBL3507680

test: Human HepG2 cell viability assay in 384 well format; assay type: toxicity, cell-based; set-up: dose 125 nL, time 70.5 hour; concentration not given beside the values; details: HepG2 cells, read-out: Inhibition
Please respond with reported cytotoxicity at 70.5 h for every item in the list.
Numbers only, in %.

Look over these answered cases.
Cn1ccnc1CNC(=O)Nc1ccc(OC2CCC2)c(F)c1 = 20
CS(=O)(=O)N1CCC2(CC1)NCCn1c(-c3ccccc3)cnc12 = -7.68
CCS(=O)(=O)N1CCC(NC(=O)c2cc(C(C)C)ccc2O)CC1 = 1.02
CCCC1(CO)CCCN(C(=O)CNC(C)=O)C1 (stereo unspecified) = -10.4
Cc1cc(NC(=O)CCc2ccsc2)n(C)n1 = -9.51

Now consider the entry below.
Task item: Supply cytotoxicity at 70.5 h value. Item: COC(=O)c1ccc(NC(=O)CN2CCCCC2C2OCCO2)cc1 (stereo unspecified)
Reply: 0.785

----------
assay: Human HepG2 cell viability assay in 384 well format; format: toxicity, cell-based; design: dose 125 nL, time 70.5 hour; concentration not given beside the values; conditions: HepG2 cells, read-out: Inhibition
MEASUREMENT_KIND: cytotoxicity at 70.5 h (%)
Numbers only, in %.

Look over these answered cases.
O=C(Nc1ncn(CC(=O)N2CCCCCC2)n1)C1CCCO1 (centres undefined) = 2.64
O=C(NCCc1ccncc1)c1ccc(N2CCOCC2)cc1 = 4.27
CC(=O)N1[C@H](Cn2cncn2)C[C@@H]2CN(C(=O)NC3CC3)CC[C@@H]21 = 5.13
CN(C)C(=O)N1Cc2ccccc2C2(CCNCC2)C1 = 28.5
O=C(CC1CCCC1)N1CCCC(c2n[nH]c3nccnc23)C1 (centres undefined) = -0.397
CC1N(C)C(=O)COC12CCN(C(=O)Cc1ccsc1)CC2 (centres undefined) = -5.66
CCCn1cnnc1-c1nc2c([nH]1)CC(c1ccc(Cl)cc1)CNC2=O (centres undefined) = 8.16
COC(CNC(=O)c1cc(C)on1)c1ccccc1C (centres undefined) = -2.28

Quick one: give me cytotoxicity at 70.5 h for each item below, same order please.
1. CCCN1CC(C(=O)Nc2ccccn2)CC1=O (centres undefined)
2. Cc1sc(NC(=O)CN(C)CCOc2cccc(F)c2)c(C)c1C
3. Cn1ccc(CNC(=O)Nc2ccc(S(=O)(=O)C(F)F)cc2)c1
4. CN(C)CCN1CCOCC2(CCCN(C(=O)c3ccoc3)C2)C1 (centres undefined)
5. Cc1nn(C)cc1-c1cncn1CCN(C)C1CCCC1
6. CC(C)c1nc(C2CCCN2CCOCC2CC2)no1 (centres undefined)
7. Cc1nc(C)n(CC2CCCN(CCCOc3ccccc3)C2)n1 (centres undefined)
8. CC(=O)N1CCN(CCNS(=O)(=O)c2cc(F)cc(F)c2)CC1

Reply:
1. -5.78
2. -2.66
3. -2.09
4. 1.59
5. -5
6. -15.5
7. -0.0538
8. -0.303

Quick one: give me cytotoxicity at 70.5 h for each item below, same order please.
1. CC(C)(C(=O)NCC1CC1)c1ccccc1F
2. Cc1cc(CN2CCC(C3CCN(CC(C)C)CC3)C2)[nH]n1 (centres undefined)
3. c1ccc(CN2CC[C@]3(C[C@@H](Oc4ccccn4)CO3)C2)nc1

Reply:
1. -4.02
2. -3.48
3. 19.9

Quick one: give me cytotoxicity at 70.5 h for each item below, same order please.
1. COc1cccc2c1OCC(C(=O)N1CCC(N3CCOC3=O)CC1)C2 (centres undefined)
2. O=C(NCc1ccccc1CO)C1COc2ccccc21 (centres undefined)
3. COc1ccc2c(ccn2CC(=O)Nc2n[nH]c(CC(C)C)n2)c1
4. CCOc1cc([C@H]2N[C@@H](c3nc(C)cs3)Cc3ccsc32)ccc1OC
5. CC(C)(C)c1cn2c(n1)C(CNCc1cnn3ccccc13)CCC2 (centres undefined)

Reply:
1. -8.52
2. -0.572
3. -11.7
4. -6.01
5. 71.2
